# MIC annotations
test system: Drechslera; test: Antimicrobial activity against Drechslera sorokiniana at 27 to 28 degC after 48 hrs in dark; assay type: functional

[ask] // returns reported MIC for input COC[C@@H]1NC(=O)[C@@H]2CCCNN2C(=O)[C@H](C(C)C)OC(=O)[C@@H](C2(C)CC2)NC(=O)[C@@H]2C[C@@]3(O)c4ccc(Cl)c(Cl)c4N[C@H]3N2C(=O)[C@@H]([C@H](O)CC(=O)O)NC1=O [KUTZNERIDE 5]
[reply] > 240 µM

====

system: Drechslera; assay: Antimicrobial activity against Drechslera sorokiniana at 27 to 28 degC after 48 hrs in dark; type: functional
Measurement kind: MIC

Worked cases, MIC given:
Molecule | MIC
COC[C@@H]1NC(=O)[C@@H]2C[C@@H](O)C=NN2C(=O)[C@H](C(C)(C)C)OC(=O)[C@@H](C2(C)CC2)NC(=O)[C@@H]2C[C@@]3(O)c4ccc(Cl)c(Cl)c4N[C@H]3N2C(=O)[C@@H]([C@H](O)CC(=O)O)NC1=O [KUTZNERIDE 6] | > 400 µM
COC[C@@H]1NC(=O)[C@@H]2CCCNN2C(=O)[C@H](C(C)C)OC(=O)[C@@H](C2(C)CC2)NC(=O)[C@@H]2C[C@@]3(O)c4ccc(Cl)c(Cl)c4N[C@H]3N2C(=O)[C@@H]([C@@H](O)CC(=O)O)NC1=O [KUTZNERIDE 7] | > 420 µM

Proceed to the following item.
[ask] Form entry - test system: Drechslera; read-out: MIC; molecule: COC[C@@H]1NC(=O)[C@@H]2CCC=NN2C(=O)[C@H](C(C)(C)C)OC(=O)[C@@H](C2(C)CC2)NC(=O)[C@@H]2C[C@@]3(O)c4ccc(Cl)c(Cl)c4N[C@H]3N2C(=O)[C@@H]([C@H](O)CC(=O)O)NC1=O [KUTZNERIDE 4]
[reply] > 590 µM
